- Target system: human β3 adrenergic receptor (Homo sapiens)
- Construct: expressed in transfected cells; host or cells: DXB-11 Chinese hamster ovary (CHO) cell line, stably transfected, phd expression vector
- Sequence (P13945 whole entry): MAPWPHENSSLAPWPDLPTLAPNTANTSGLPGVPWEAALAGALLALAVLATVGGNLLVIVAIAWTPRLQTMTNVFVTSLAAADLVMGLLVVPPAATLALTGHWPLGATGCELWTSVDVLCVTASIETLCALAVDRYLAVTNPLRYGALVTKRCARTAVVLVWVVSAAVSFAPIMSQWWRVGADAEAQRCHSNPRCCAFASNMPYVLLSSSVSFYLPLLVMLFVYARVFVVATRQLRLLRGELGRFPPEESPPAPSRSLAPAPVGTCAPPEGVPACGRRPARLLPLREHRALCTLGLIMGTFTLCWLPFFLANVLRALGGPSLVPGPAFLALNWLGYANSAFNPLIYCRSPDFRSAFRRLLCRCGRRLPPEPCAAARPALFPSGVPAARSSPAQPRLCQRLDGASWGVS
- Protocol details: whole cell receptor coupled c-AMP assay (Emax relative to isoproterenol)
- Type: cell-based
- Condition notes: % intrinsic activity relative to isoproterenol maximal response; transfected CHO cells
Parameter measured: Emax (%)
Give just the number in %; leave the unit off.

Ask | Please give the measured Emax for this compound: CC(C)(Cc1c[nH]c2c(Oc3ccc(C(=O)O)cn3)cccc12)NC[C@H](O)COc1cccc2c1C1(CCCC1)C(=O)N2
Reply | 82.4

Ask | Reported Emax, compound CC(C)(Cc1c[nH]c2cccc(C(N)=O)c12)NC[C@H](O)COc1cccc2c1C1(CCCC1)C(=O)N2 : ____
Reply | 48.3

Ask | What Emax value was documented for this compound, CC(C)(Cc1c[nH]c2cccc(C(=O)O)c12)NC[C@H](O)COc1cccc2c1C1(CCCC1)C(=O)N2 ?
Reply | 37.9

Ask | What does the data say about its Emax? Entry: CC(C)(Cc1c[nH]c2c(CCc3ccc(S(N)(=O)=O)cc3)cccc12)NC[C@H](O)COc1cccc2c1C1(CCCC1)C(=O)N2
Reply | 78.5

Ask | Please report the recorded Emax for C[C@H](Cn1ccc2c(OCC(=O)O)cccc21)NC[C@H](O)COc1cccc2c1C1(CCCC1)C(=O)N2 .
Reply | 73.3

Ask | What measured Emax goes with CC(C)(Cc1c[nH]c2ccc(C(=O)O)cc12)NC[C@H](O)COc1cccc2c1C1(CCCC1)C(=O)N2 ?
Reply | 53.5

Ask | So what does the record say about Emax for CC(C)(Cc1c[nH]c2c(-c3ccc(C(=O)O)s3)cccc12)NC[C@H](O)COc1cccc2c1C1(CCCC1)C(=O)N2 ?
Reply | 75.1
